Tested on: HT-29 colon adenocarcinoma
ASSAY_PROTOCOL: MTT cell antiproliferative assay, HT-29 (without or with verapamil)
Assay type: cell-based, human
EXPERIMENTAL_CONDITIONS: Homo sapiens, HT-29; MTT, 72 h
Hi there, I'd appreciate the recorded log10 IC50 for every entry that follows.
Please be aware that the numbers have been log10-transformed from IC50 in nM.

COc1cc(C=Cc2ccc(N3CCCC3)cc2)cc(OC)c1OC : 2.63

The following compounds each have a reported value; give each one's log10 IC50.
1. COc1cc(C=Cc2ccc(N(C)C)cc2)cc(OC)c1OC
2. C=C(c1ccc(N(C)C)cc1)c1ccc(OC)c(OC)c1OC
3. C=C(c1ccc(N(C)C)nc1)c1cc(OC)c(OC)c(OC)c1
4. C=C(c1ccc(N2CCCC2)nc1)c1cc(OC)c(OC)c(OC)c1
5. COc1cc(C(=O)c2ccnc(N3CCCC3)c2)cc(OC)c1OC
6. COc1cc(C(=O)c2ccnc(N(C)C)c2)cc(OC)c1OC
7. COc1cc(C=Cc2ccc(N(C)C)nc2)cc(OC)c1OC

Key:
1. 2.70
2. 3.60
3. 2.44
4. 2.58
5. 1.85
6. 2.50
7. 1.89

###

Tested on: HeLa, HT-29 and MCF-7 human tumor cell lines
ASSAY_PROTOCOL: Antiproliferative activity over the three human tumor cell lines (MTT)
Assay type: cell-based
EXPERIMENTAL_CONDITIONS: Homo sapiens, range over the cell lines, Table S1; read-out: Cytotoxicity range (range of antiproliferative IC50 values)
Experimental: The in vitro antiproliferative activity of the synthesized compounds was evaluated by a colorimetric reaction, using the MTT reagent. […] The antiproliferative activity of the compounds against three human tumor cell lines of different origins (i.e., HeLa cervix epithelioid carcinoma, HT-29 colon adenocarcinoma and MCF-7 breast adenocarcinoma) was evaluated by the MTT method. […]
REPORTED_PROPERTY: IC50

Solved entries (count: 5):
COc1cc(C(C)c2cccc(N(C)C)c2)cc(OC)c1OC (stereo not shown) [Compound 4f] : > 1 µM
COc1ccc(C(C)c2ccc(N(C)C)cc2)c(OC)c1OC (stereo not shown) [Compound 4d] : > 1 µM
COc1cc(C(=O)c2ccnc(N(C)C)c2)cc(OC)c1OC [Compound 1g] : 0.223 to 0.387 µM
COc1cc(C(=O)c2ccc(N(C)C)nc2)cc(OC)c1OC [Compound 1b] : > 1 µM
COc1cc(C=Cc2ccc(N3CCCC3)nc2)cc(OC)c1OC [Compound 8c] : > 1 µM

Please give IC50 for each item listed below.
1. COc1ccc(OC)c(C(C)c2ccc(N(C)C)cc2)c1 (stereo not shown) [Compound 4e]
2. COc1ccc(OC)c(C(=O)c2ccc(N(C)C)cc2)c1 [Compound 1e]

Key:
1. > 1 µM
2. > 1 µM

Hey, quick one: what's IC50 for each of these?
1. C=C(c1ccnc(N2CCCC2)c1)c1cc(OC)c(OC)c(OC)c1 [Compound 3h]
2. C=C(c1cccc(N(C)C)c1)c1cc(OC)c(OC)c(OC)c1 [Compound 3f]
3. COc1cc(C(=NO)c2cccc(N(C)C)c2)cc(OC)c1OC [Compound E-2f]

Key:
["0.23 to 0.477 µM", "> 1 µM", "> 1 µM"]

###

ASSAY_PROTOCOL: Aqueous solubility determination (shake flask, UV)
Type: physicochemical
EXPERIMENTAL_CONDITIONS: phosphate buffer, pH 7, aqueous buffer, thermodynamic from solid, phosphate buffer pH 7.0, 48 h stirring, filtered, UV; read-out: Solub.
Decision: solubility at 48 h compared against 200 µg/mL; not below it gives y, below it gives n.

Solved cases (5 shown):
COc1cc(C=Cc2ccnc(N3CCCC3)c2)cc(OC)c1OC : n
C=C(c1ccc(N(C)C)nc1)c1cc(OC)c(OC)c(OC)c1 : n
COc1cc(C(=NO)c2cccc(N(C)C)c2)cc(OC)c1OC : n
C=C(c1ccnc(N(C)C)c1)c1cc(OC)c(OC)c(OC)c1 : n
COc1cc(C=Cc2ccc([N+](C)(C)C)nc2)cc(OC)c1OC.[I-] : y

Exercise: Please check the record COc1cc(C(=O)c2cccc(N(C)C)c2)cc(OC)c1OC and state if its solubility at 48 h is at or above 200 µg/mL.
Key: n

Exercise: Is it the case that COc1cc(C(=O)c2ccnc(N3CCCC3)c2)cc(OC)c1OC has solubility at 48 h reaching or exceeding 200 µg/mL?
Key: n

Exercise: State whether the measured solubility at 48 h reaches 200 µg/mL, counting equality as reaching it, for COc1cc(C(=NO)c2ccnc(N(C)C)c2)cc(OC)c1OC
Key: y

Exercise: Reported solubility at 48 h reaches at least 200 µg/mL for COc1ccc(OC)c(C(=O)c2ccc([N+](C)(C)C)cc2)c1.[I-] ?
Key: y

###

I'd appreciate it if you could supply IC50 values for the items below.
Tested on: HeLa, HT-29 and MCF-7 human tumor cell lines
ASSAY_PROTOCOL: Antiproliferative activity over the three human tumor cell lines (MTT)
Assay type: cell-based
EXPERIMENTAL_CONDITIONS: range over the cell lines, Table S1; read-out: Cytotoxicity range (range of antiproliferative IC50 values)

Worked examples, 2 molecules total:
COc1cc(C(=NO)c2ccnc(N(C)C)c2)cc(OC)c1OC : 407 to 3330 nM
COc1ccc(OC)c(C(=NO)c2ccc(N(C)C)cc2)c1 : > 1000 nM

// input: 3 molecules below; output: IC50 for each
1. COc1cc(C(=NO)c2ccc(N3CCCC3)nc2)cc(OC)c1OC
2. COc1cc(C(=NO)c2cccc(N(C)C)c2)cc(OC)c1OC
3. COc1cc(C(=NO)c2ccc([N+](C)(C)C)cc2)cc(OC)c1OC

Key:
["> 1000 nM", "> 1000 nM", "> 1000 nM"]

###

Test system: rat primary pancreatic cells
ASSAY_PROTOCOL: Toxicity against rat primary pancreatic cells (MTT)
EXPERIMENTAL_CONDITIONS: rat, 7 h, 0.25 µM, pH 7.4
REPORTED_PROPERTY: live cells with respect to the non-treated control (means ± S.E.M.) (%)
Give bare numbers, in %.

C=C(c1ccc(N(C)C)nc1)c1cc(OC)c(OC)c(OC)c1 : 112.81
COc1cc(C=Cc2ccc(N(C)C)nc2)cc(OC)c1OC : 94.31
COc1cc(C(=O)c2cccc(N(C)C)c2)cc(OC)c1OC : 106.59

Shift focus to the following entry.
# live cells with respect to the non-treated control (means ± S.E.M.) of COc1cc(C(=O)c2ccnc(N3CCCC3)c2)cc(OC)c1OC = 103.84

###

Test system: HeLa cervix epithelioid carcinoma
ASSAY_PROTOCOL: MTT cell antiproliferative assay, HeLa
Format: cell-based
EXPERIMENTAL_CONDITIONS: Homo sapiens, 72 h
REPORTED_PROPERTY: IC50

These recorded examples may help you get a feel for the data.
C=C(c1ccc(N(C)C)cc1)c1cc(OC)c(OC)c(OC)c1 : 40 nM
COc1cc(C=Cc2ccc(N3CCCC3)cc2)cc(OC)c1OC : 243 nM
C=C(c1ccc([N+](C)(C)C)cc1)c1cc(OC)c(OC)c(OC)c1.[I-] : > 1000 nM
COc1ccc(C(=NO)c2ccc(N(C)C)cc2)c(OC)c1OC : 373 nM

Look at each molecule and report its IC50.
1. COc1cc(C(=NO)c2ccc(N(C)C)cc2)cc(OC)c1OC
2. COc1cc(C=Cc2ccc(N3CCCC3)nc2)cc(OC)c1OC
3. COc1cc(C=Cc2ccc([N+](C)(C)C)nc2)cc(OC)c1OC.[I-]
4. C=C(c1cccc(N(C)C)c1)c1cc(OC)c(OC)c(OC)c1

Key:
1. 800 nM
2. > 1000 nM
3. > 1000 nM
4. > 1000 nM

Need IC50 for each of these molecules.
1. C=C(c1ccc(N(C)C)cc1)c1cc(OC)ccc1OC
2. COc1cc(C=Cc2ccc(N(C)C)cc2)cc(OC)c1OC
3. COc1ccc(OC)c(C(C)c2ccc(N(C)C)cc2)c1 (stereo not shown)

Key:
1. > 1000 nM
2. 208 nM
3. > 1000 nM

Provide the reported IC50 of each entry below, same order.
1. COc1cc(C(=NO)c2ccc(N3CCCC3)nc2)cc(OC)c1OC
2. COc1cc(C(=O)c2cccc(N(C)C)c2)cc(OC)c1OC
3. C=C(c1ccnc(N(C)C)c1)c1cc(OC)c(OC)c(OC)c1
4. COc1cc(C(=O)c2ccc(N(C)C)nc2)cc(OC)c1OC
5. C=C(c1ccc([N+](C)(C)C)cc1)c1ccc(OC)c(OC)c1OC.[I-]
6. C=C(c1ccc(N(C)C)cc1)c1ccc(OC)c(OC)c1OC

Key:
1. > 1000 nM
2. 180 nM
3. 403 nM
4. > 1000 nM
5. > 1000 nM
6. 1000 nM

For each of the molecules below, note its IC50.
1. COc1ccc(OC)c(C(=O)c2ccc([N+](C)(C)C)cc2)c1.[I-]
2. COc1cc(C(=NO)c2cccc(N(C)C)c2)cc(OC)c1OC
3. COc1cc(C(=NO)c2ccnc(N(C)C)c2)cc(OC)c1OC
4. COc1cc(C(=NO)c2ccc([N+](C)(C)C)cc2)cc(OC)c1OC.[I-]
5. COc1cc(C=Cc2ccc([N+]3(C)CCCC3)cc2)cc(OC)c1OC

Key:
> 1000 nM
> 1000 nM
533 nM
> 1000 nM
> 1000 nM
